Recorded values, source patent US9730447B2.

Entries and their measured Test C disease control rating follow.
tested on: Septoria tritici; assay: Test C: preventive spray on wheat seedlings, Septoria tritici (wheat leaf blotch), visual disease rating; format: in vivo; details: 100 = 100% disease control, 0 = no control, unmarked values

# compound, unit-annotation, Test C disease control rating
data = [
    ("Cn1cc(C(=O)Nc2ccccc2-c2ccc(-n3cccn3)nc2)c(C(F)F)n1", "%", 100),
    ("O=C(Nc1ccccc1-c1cnc(-n2cc(Cl)cn2)c(Cl)c1)c1ccccc1C(F)(F)F", "%", 100),
    ("CC1=C(C(=O)Nc2ccccc2-c2cnc(-n3ccc(C(F)(F)F)n3)c(F)c2)SCCO1", "%", 77),
    ("Cn1cc(C(=O)Nc2ccccc2-c2cnc(-n3ccc(Cl)n3)c(F)c2)c(C(F)F)n1", "%", 100),
    ("COc1cccc(C2CC(c3ccc(-c4ccccc4NC(=O)c4ncccc4C(F)(F)F)cn3)=NO2)c1 (racemic)", "%", 100),
]

----------
Tested on: Puccinia recondite f. sp. tritici
Assay: Test D: preventive spray on wheat seedlings, Puccinia recondite f. sp. tritici (wheat leaf rust), visual disease rating
Assay type: in vivo
Conditions: 100 = 100% disease control, 0 = no control, unmarked values
Excerpt: General protocol for preparing test suspensions for Tests A-E: the test compounds were first dissolved in acetone in an amount equal to 3% of the final volume and then suspended at the desired concentration (in ppm) in acetone and purified water (50/50 mix by volume) containing 250 ppm of the surfactant Trem® 014 (polyhydric alcohol esters). […]
Entries and their measured Test D disease control rating follow.

# chem-smiles, tested-target, Test D disease control rating (%)
measured = [
    ("O=C(Nc1ccccc1-c1cnc(-n2ccc(Br)n2)c(F)c1)c1ncccc1C(F)(F)F", "Puccinia recondite f. sp. tritici", 100),
    ("O=C(Nc1ccccc1-c1ccc(-n2cc(-c3cccc(F)c3)cn2)nc1)c1ncccc1C(F)(F)F", "Puccinia recondite f. sp. tritici", 98),
    ("O=C(Nc1ccccc1-c1ccc(-n2ccc(-c3ccccc3)n2)nc1)c1ncccc1C(F)(F)F", "Puccinia recondite f. sp. tritici", 92),
]

----------
Entries and their measured Test D disease control rating follow.
system: Puccinia recondite f. sp. tritici; experiment: Test D: preventive spray on wheat seedlings, Puccinia recondite f. sp. tritici (wheat leaf rust), visual disease rating; format: in vivo; conditions: 100 = 100% disease control, 0 = no control, unmarked values
parameter: Test D disease control rating (%)

# compound, parameter, reported
measured = [
    ("O=C(Nc1ccccc1-c1cnc(-n2ccc(C(F)(F)F)n2)c(F)c1)c1ncsc1C(F)(F)F", "Test D disease control rating", 100),
    ("COc1ccccc1-c1cnn(-c2ccc(-c3ccccc3NC(=O)c3cn(C)nc3C(F)F)cn2)c1", "Test D disease control rating", 100),
    ("O=C(NCCc1ncc(-n2ccc(C(F)(F)F)n2)cn1)c1ccccc1C(F)(F)F", "Test D disease control rating", 0),
    ("Cc1ccsc1C(=O)Nc1ccccc1-c1cnc(-n2ccc(C(F)(F)F)n2)c(Cl)c1", "Test D disease control rating", 100),
    ("Cn1cc(C(=O)Nc2ccccc2-c2ccc(-n3ccc(C(F)(F)F)n3)nc2)c(C(F)(F)F)n1", "Test D disease control rating", 100),
    ("O=C(Nc1ccccc1-c1ccc(C2=NOC(c3ccc(F)cc3)C2)nc1)c1ncccc1C(F)(F)F (racemic)", "Test D disease control rating", 100),
    ("O=C(Nc1ccccc1-c1ccc(-n2cc(-c3ccc(F)cc3)cn2)nc1)c1ncccc1C(F)(F)F", "Test D disease control rating", 89),
    ("Cc1cnn(-c2ccc(-c3ccccc3NC(=O)c3ncccc3Cl)cn2)c1", "Test D disease control rating", 97),
    ("Cc1nc(C(F)(F)F)c(C(=O)Nc2ccccc2-c2cnc(-n3ccc(C(F)(F)F)n3)c(F)c2)s1", "Test D disease control rating", 100),
    ("O=C(Nc1ccccc1-c1ccc(-n2ccc(C(F)(F)F)n2)nn1)c1ccccc1C(F)(F)F", "Test D disease control rating", 100),
    ("O=C(Nc1ccccc1-c1ccc(-n2ccc(-c3ccccc3)n2)nc1)c1ccccc1C(F)(F)F", "Test D disease control rating", 68),
    ("O=C(Nc1ccccc1-c1ccc(-n2cc(Cl)cn2)nc1)c1ncccc1C(F)(F)F", "Test D disease control rating", 100),
    ("COc1cc(OC)cc(C2CC(c3ccc(-c4ccccc4NC(=O)c4ncccc4C(F)(F)F)cn3)=NO2)c1 (racemic)", "Test D disease control rating", 99),
]

----------
system: Puccinia recondite f. sp. tritici; experiment: Test D: preventive spray on wheat seedlings, Puccinia recondite f. sp. tritici (wheat leaf rust), visual disease rating; type: in vivo; conditions: values marked with asterisk (*), meaning not given
Marks after values point to notes of the source that are not given here.

# compound, Test D disease control rating
data = [
    ("O=C(NCCc1ncc(-n2ccc(Cl)n2)cn1)c1ncccc1C(F)(F)F [Compound 181]", "9* %"),
    ("Cc1ccsc1C(=O)Nc1ccccc1-c1cnc(-n2ccc(C(F)(F)F)n2)c(C#N)c1 [compound 154]", "100* %"),
    ("O=C(Nc1ccccc1-c1cnc(-n2ccc(C(F)(F)F)n2)c(Cl)c1)c1scnc1C(F)(F)F [compound 165]", "98* %"),
    ("Cc1occc1C(=O)Nc1ccccc1-c1cnc(-n2ccc(C(F)(F)F)n2)c(Cl)c1 [compound 118]", "68* %"),
    ("O=C(Nc1ccccc1-c1cnc(-n2ccc(C(F)(F)F)n2)c(Cl)c1)c1cccs1 [compound 111]", "84* %"),
    ("Cn1cc(C(=O)Nc2ccccc2-c2cnc(-n3ccc(C(F)(F)F)n3)c(C#N)c2)c(C(F)(F)F)n1 [compound 127]", "100* %"),
]

----------
tested on: Puccinia recondite f. sp. tritici; test: Test D: preventive spray on wheat seedlings, Puccinia recondite f. sp. tritici (wheat leaf rust), visual disease rating; assay type: in vivo; conditions: 100 = 100% disease control, 0 = no control, unmarked values
parameter: Test D disease control rating (%)

# compound, unit-annotation, reported
records = [
    ("COc1ccc(-c2ccn(-c3ccc(-c4ccccc4NC(=O)c4cn(C)nc4C(F)F)cn3)n2)cc1 [compound 88]", "%", 100),
    ("Cc1cc(-c2ccccc2NC(=O)c2ccccc2C(F)(F)F)cnc1-n1cc(Cl)cn1 [compound 63]", "%", 99),
    ("O=C(Nc1ccccc1-c1cnc(-n2ccc(C(F)(F)F)n2)c(F)c1)c1nccnc1C(F)(F)F [compound 115]", "%", 100),
    ("Cn1cc(C(=O)Nc2ccccc2-c2ccc(-n3ccc(-c4cccc(F)c4)n3)nc2)c(C(F)F)n1 [compound 87]", "%", 100),
    ("Cc1cc(C)n(-c2ccc(-c3ccccc3NC(=O)c3ncccc3C(F)(F)F)cn2)n1 [compound 52]", "%", 96),
]

----------
system: Septoria tritici; assay: Test C: preventive spray on wheat seedlings, Septoria tritici (wheat leaf blotch), visual disease rating; type: in vivo; details: 100 = 100% disease control, 0 = no control, unmarked values
Entries and their measured Test C disease control rating follow.

# compound, Test C disease control rating [%]
rows = [
    ("O=C(Nc1ccccc1-c1ccc(C2=NOC(c3cccc(F)c3)C2)nc1)c1ncccc1C(F)(F)F (racemic) [compound 17]", 100),
    ("O=C(Nc1ccccc1-c1ccc(-n2ccc(-c3ccccc3)n2)nc1)c1ccccc1C(F)(F)F [compound 42]", 87),
    ("Cn1cc(C(=O)Nc2ccccc2-c2cnc(-n3ccc(C(F)F)n3)c(F)c2)c(C(F)F)n1 [compound 162]", 98),
    ("Cc1cnn(-c2ccc(-c3ccccc3NC(=O)c3ccccc3C(F)(F)F)cn2)c1 [compound 44]", 62),
    ("O=C(Nc1ccccc1-c1ccc(-n2ccc(-c3ccccc3)n2)nc1)c1ncccc1C(F)(F)F [compound 39]", 92),
    ("Cn1cc(C(=O)Nc2ccccc2-c2ccc(-n3cc(Br)cn3)nc2)c(C(F)F)n1 [compound 31]", 100),
    ("COc1ccccc1-c1cnn(-c2ccc(-c3ccccc3NC(=O)c3cn(C)nc3C(F)F)cn2)c1 [compound 8]", 99),
    ("O=C(Nc1ccccc1-c1ccc(-n2cc(Br)cn2)nc1)c1ncccc1Cl [compound 47]", 82),
    ("Cn1cc(C(=O)Nc2ccccc2-c2cnc(-n3ccc(C(F)(F)F)n3)c(Cl)c2)c(C(F)F)n1 [compound 35]", 100),
    ("O=C(Nc1ccccc1-c1ccc(-n2ccc(C(F)(F)F)n2)nn1)c1ccccc1C(F)(F)F [compound 57]", 32),
    ("Cn1cc(C(=O)Nc2ccccc2-c2ccc(-n3ccc(-c4cccc(F)c4)n3)nc2)c(C(F)F)n1 [compound 87]", 97),
    ("N#Cc1cnn(-c2ncc(-c3ccccc3NC(=O)c3ncccc3C(F)(F)F)cc2F)c1 [compound 85]", 45),
    ("Cn1cc(C(=O)Nc2ccccc2-c2ccc(-n3cc(-c4ccccc4F)cn3)nc2)c(C(F)F)n1 [compound 7]", 100),
    ("COc1cc(C(F)(F)F)nn1-c1ccc(-c2ccccc2NC(=O)c2ncccc2C(F)(F)F)cn1 [compound 48]", 73),
    ("COc1ccc(-c2ccn(-c3ccc(-c4ccccc4NC(=O)c4cn(C)nc4C(F)F)cn3)n2)cc1 [compound 88]", 51),
    ("O=C(Nc1ccccc1-c1cnc(-n2ccc(C(F)F)n2)c(F)c1)c1ncccc1C(F)(F)F [compound 161]", 95),
    ("O=C(Nc1ccccc1-c1cnc(-n2ccc(Cl)n2)c(F)c1)c1ccccc1C(F)(F)F [compound 77]", 100),
    ("Cn1cc(C(=O)Nc2ccccc2-c2ccc(-n3ccc(-c4ccc(F)cc4)n3)nc2)c(C(F)F)n1 [compound 99]", 90),
    ("COc1cccc(-c2cnn(-c3ccc(-c4ccccc4NC(=O)c4cn(C)nc4C(F)F)cn3)c2)c1 [compound 9]", 100),
    ("CCOC(=O)C1CC(c2ccc(-c3ccccc3NC(=O)c3cn(C)nc3C(F)F)cn2)=NO1 (stereo not drawn) [compound 110]", 22),
    ("Cc1sccc1C(=O)Nc1ccccc1-c1cnc(-n2ccc(C(F)(F)F)n2)c(F)c1 [compound 163]", 97),
    ("O=C(Nc1ccccc1-c1cnc(-n2cc(Cl)cn2)c(F)c1)c1ncccc1C(F)(F)F [compound 70]", 100),
    ("CCOC(=O)C1(C)CC(c2ccc(-c3ccccc3NC(=O)c3cn(C)nc3C(F)F)cn2)=NO1 (stereo not drawn) [compound 109]", 66),
    ("O=C(NCCc1ncc(-n2ccc(C(F)(F)F)n2)cn1)c1ccccc1C(F)(F)F [Compound 177]", 91),
]
